# Measurement Description: Retention time of the compound in human liver microsomes after 5 mins in presence of NADPH by LC-MS/MS analysis
# Format: ADME, Microsome
Parameter: Retention_time (min)
The reply should contain only the number, in min.

CSc1cc(C)nc(SC)c1NC(=O)CN1CCN(CC[S+]([O-])c2nc3ccccc3[nH]2)CC1 (centres undefined)    5.78

Lab note: measured Retention_time of CSc1cc(C)nc([S+](C)[O-])c1NC(=O)CN1CCN(CCSc2nc3ccccc3[nH]2)CC1 (centres undefined) was 2.73

Lab note: measured Retention_time of CSc1nc(C)cc([S+](C)[O-])c1NC(=O)CN1CCN(CCSc2nc3ccccc3[nH]2)CC1 (centres undefined) was 3.37

Lab note: measured Retention_time of CSc1cc(C)nc(SC)c1NC(=O)CN1CCN(CCSc2nc3cc(O)ccc3[nH]2)CC1 was 3.21
